Hello, the source for this data is patent US9498483B2, in case you need it.

tested on: HCV replicon I389luc-ubi-neo/NS3-3′/ET in ET (Huh-lucubineo-ET) cells; test: Replicon assay (Biological Example 2), luciferase readout; assay type: cell-based; conditions: Hepatitis C virus; ET cells, luciferase activity 48 hours after compound
IC50 by entry:

[[record]]
compound = "CC(C)(C)C#Cc1cc(N2C(=O)C(CN3CCOCC3)OC[C@H]2C2CCCCC2)c(C(=O)O)s1 (stereo partly drawn)"
study_system = "HCV replicon I389luc-ubi-neo/NS3-3′/ET in ET (Huh-lucubineo-ET) cells"
attribute_measured = "IC50"
result = "≤ 100 nM"

[[record]]
compound = "CC(C)(C)C#Cc1cc(N2C(=O)[C@@H](O)CC[C@H]2C2CCCCC2)c(C(=O)O)s1"
study_system = "HCV replicon I389luc-ubi-neo/NS3-3′/ET in ET (Huh-lucubineo-ET) cells"
attribute_measured = "IC50"
result = "≤ 100 nM"


As a next step, examine the compound that follows.
Name the recorded IC50 for O=C(O)c1sc(-c2ccccc2)cc1N1C(=O)CN(S(=O)(=O)c2ccc(NCCO)nc2)CC1C1CCCCC1 (stereo not drawn) .
≤ 100 nM

---

Reported IC50 values, HCV polymerase (Hepatitis C virus genotype 1b, UniProt Q9WMX2).
Give a bare numeral; the unit nM is implied.

Worked examples, 3 molecules total:
[[record]]
molecule = "CC(C)(C)c1ccc(-c2cc(N3C(=O)CCCC3C3CCCCC3)c(C(=O)O)s2)cc1 (stereo not drawn)"
study_system = "HCV polymerase (Hepatitis C virus genotype 1b, UniProt Q9WMX2)"
number = 44

[[record]]
molecule = "CC(C)(C)C#Cc1cc(N2C(=O)[C@](C)(CCCO)OC[C@H]2C2CCCCC2)c(C(=O)O)s1"
study_system = "HCV polymerase (Hepatitis C virus genotype 1b, UniProt Q9WMX2)"
number = 6

[[record]]
molecule = "O=C(O)c1sc(-c2ccccc2)cc1N1C(=O)CN(Cc2ccc(N3CCCC3)nc2)C[C@H]1C1CCCCC1"
study_system = "HCV polymerase (Hepatitis C virus genotype 1b, UniProt Q9WMX2)"
number = 2


As a next step, examine the molecule that follows.
# value lookup — system HCV polymerase (Hepatitis C virus genotype 1b, UniProt Q9WMX2), readout IC50, item CC(C)(C)C#Cc1cc(N2C(=O)C(CCO)CC[C@H]2C2CCCCC2)c(C(=O)O)s1 (single isomer, unassigned) [Compound 343]
1

---

Reported IC50 values, HCV polymerase (Hepatitis C virus genotype 1b).
Give a bare numeral; the unit nM is implied.

Worked examples, 2 compounds total:
[[record]]
compound = "CC(C)(C)C#Cc1cc(N2C(=O)C(N)CC[C@H]2C2CCCCC2)c(C(=O)O)s1 (stereo partly shown)"
attribute_measured = "IC50"
readout_units = "nM"
number = 8

[[record]]
compound = "N#Cc1cccc(S(=O)(=O)N2CC(=O)N(c3cc(-c4ccccc4)sc3C(=O)O)[C@H](C3CCCCC3)C2)c1"
attribute_measured = "IC50"
readout_units = "nM"
number = 27


Name the recorded IC50 for CCC(C)S(=O)(=O)N1CC(=O)N(c2cc(-c3ccccc3)sc2C(=O)O)C(C2CCCCC2)C1 (stereo not shown) .
4900

Name the recorded IC50 for Cc1ccc(-c2cc(N3C(=O)CN(S(=O)(=O)c4ccc(N5CCCC5)nc4)C[C@H]3C3CCCCC3)c(C(=O)O)s2)cc1 .
1

Name the recorded IC50 for O=C(O)c1sc(-c2ccc(Cl)cc2)cc1N1C(=O)CN(S(=O)(=O)c2ccc(N3CCCCC3)cc2)C[C@H]1C1CCCCC1 .
2

Name the recorded IC50 for O=C(O)c1sc(-c2ccccc2)cc1N1C(=O)CN(S(=O)(=O)c2ccc(NC3CCOCC3)nc2)C[C@H]1C1CCCCC1 .
2

Name the recorded IC50 for Cc1nc(C)c(S(=O)(=O)N2CC(=O)N(c3cc(C#CC(C)(C)C)sc3C(=O)O)[C@H](C3CCCCC3)C2)s1 .
2
